Catalogue of selectivity ratio values
Assay explanation: Selectivity index, ratio of CC50 for human MT4 cells to EC50 for HIV-1 NL 4-3 infected in MT4 cells
Assay type: toxicity, cell-based
Conditions used: read-out: Ratio CC50/EC50

CC1=C2[C@H]3O[C@]34CC[C@@H]3C(C)(C)CC[C@H](O)[C@@]3(C)[C@@H]4C[C@H]2OC1=O    10.3

Next compound, please.
Query: selectivity ratio; subject: "CC(=O)O[C@H]1C2=C(C[C@H]3OC(=O)C(C)=C13)[C@@]1(C)[C@H](CC2)C(C)(C)CC[C@@H]1O"
8.6

###

Tgt: Nuclear factor NF-kappa-B complex (Homo sapiens) (UniProt Q00653+P19838+Q04206)
Sequence (P19838 whole entry, looked up): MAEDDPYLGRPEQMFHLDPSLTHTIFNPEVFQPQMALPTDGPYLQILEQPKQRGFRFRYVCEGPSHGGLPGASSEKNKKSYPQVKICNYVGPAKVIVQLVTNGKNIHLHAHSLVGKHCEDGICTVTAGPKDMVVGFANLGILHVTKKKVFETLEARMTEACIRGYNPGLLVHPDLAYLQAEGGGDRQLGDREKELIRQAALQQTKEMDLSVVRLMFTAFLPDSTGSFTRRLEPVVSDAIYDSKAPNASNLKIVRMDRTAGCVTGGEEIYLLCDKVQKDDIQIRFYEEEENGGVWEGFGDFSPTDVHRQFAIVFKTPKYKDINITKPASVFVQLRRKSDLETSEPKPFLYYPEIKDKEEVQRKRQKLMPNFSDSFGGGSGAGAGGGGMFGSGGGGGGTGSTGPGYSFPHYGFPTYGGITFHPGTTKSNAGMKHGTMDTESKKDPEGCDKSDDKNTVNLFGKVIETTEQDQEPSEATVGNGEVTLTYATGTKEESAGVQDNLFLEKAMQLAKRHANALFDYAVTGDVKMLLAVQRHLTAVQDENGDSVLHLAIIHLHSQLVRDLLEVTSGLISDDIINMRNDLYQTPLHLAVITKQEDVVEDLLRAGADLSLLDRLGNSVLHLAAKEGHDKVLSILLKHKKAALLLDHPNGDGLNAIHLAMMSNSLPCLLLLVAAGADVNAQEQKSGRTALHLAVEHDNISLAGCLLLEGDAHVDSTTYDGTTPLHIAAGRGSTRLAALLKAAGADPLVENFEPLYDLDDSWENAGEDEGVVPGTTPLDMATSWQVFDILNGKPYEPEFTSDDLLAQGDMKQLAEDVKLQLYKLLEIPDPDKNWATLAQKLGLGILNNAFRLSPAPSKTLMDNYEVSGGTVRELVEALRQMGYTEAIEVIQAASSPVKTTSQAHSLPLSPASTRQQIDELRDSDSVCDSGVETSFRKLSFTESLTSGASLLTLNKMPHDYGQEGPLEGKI
Sequence (Q00653 whole entry, looked up): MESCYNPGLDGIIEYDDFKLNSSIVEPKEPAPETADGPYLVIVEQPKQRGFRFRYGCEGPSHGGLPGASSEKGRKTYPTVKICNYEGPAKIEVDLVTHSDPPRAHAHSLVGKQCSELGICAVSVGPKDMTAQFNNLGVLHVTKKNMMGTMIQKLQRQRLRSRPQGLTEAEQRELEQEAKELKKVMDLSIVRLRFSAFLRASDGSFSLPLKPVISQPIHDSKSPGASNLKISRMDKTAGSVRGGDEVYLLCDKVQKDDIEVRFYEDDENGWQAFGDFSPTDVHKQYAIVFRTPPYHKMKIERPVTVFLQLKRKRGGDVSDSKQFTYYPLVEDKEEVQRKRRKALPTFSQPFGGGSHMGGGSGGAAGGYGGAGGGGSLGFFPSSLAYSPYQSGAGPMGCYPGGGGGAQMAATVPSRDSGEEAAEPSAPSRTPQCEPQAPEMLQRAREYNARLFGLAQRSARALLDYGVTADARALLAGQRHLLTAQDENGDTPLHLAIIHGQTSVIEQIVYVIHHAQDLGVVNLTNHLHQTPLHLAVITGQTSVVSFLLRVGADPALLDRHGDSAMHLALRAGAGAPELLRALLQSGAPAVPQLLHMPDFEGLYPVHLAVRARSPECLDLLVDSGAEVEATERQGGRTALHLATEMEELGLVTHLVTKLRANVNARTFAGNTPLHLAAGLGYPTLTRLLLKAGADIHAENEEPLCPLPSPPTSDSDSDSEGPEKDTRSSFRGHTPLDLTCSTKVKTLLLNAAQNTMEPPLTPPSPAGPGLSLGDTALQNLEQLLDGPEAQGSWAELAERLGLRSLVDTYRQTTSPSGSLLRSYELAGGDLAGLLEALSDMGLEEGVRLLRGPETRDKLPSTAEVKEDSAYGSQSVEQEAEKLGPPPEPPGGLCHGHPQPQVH
Sequence (Q04206 whole entry, looked up): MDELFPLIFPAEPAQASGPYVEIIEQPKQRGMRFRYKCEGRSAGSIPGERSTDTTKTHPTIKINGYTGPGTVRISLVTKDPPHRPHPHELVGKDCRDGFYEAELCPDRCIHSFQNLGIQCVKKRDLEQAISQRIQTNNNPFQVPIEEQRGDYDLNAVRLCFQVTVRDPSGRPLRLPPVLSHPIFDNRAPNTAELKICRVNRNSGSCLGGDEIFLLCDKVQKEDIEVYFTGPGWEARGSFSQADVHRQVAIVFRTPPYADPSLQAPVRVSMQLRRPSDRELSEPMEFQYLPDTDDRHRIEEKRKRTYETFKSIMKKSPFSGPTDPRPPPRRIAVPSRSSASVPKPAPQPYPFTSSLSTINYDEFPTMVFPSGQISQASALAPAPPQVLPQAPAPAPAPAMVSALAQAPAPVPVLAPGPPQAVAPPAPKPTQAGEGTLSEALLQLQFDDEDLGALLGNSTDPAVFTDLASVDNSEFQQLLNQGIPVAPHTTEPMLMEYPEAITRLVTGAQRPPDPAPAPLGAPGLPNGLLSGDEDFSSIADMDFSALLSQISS
Assay explanation: Inhibition of TNFalpha-stimulated NF-kappaB signaling (unknown origin) expressed in HEK293 cells by luciferase reporter gene assay
Assay type: cell-based
The source made the active and inactive calls. No cut-off for these calls is given here.
Measured endpoint: inhibition

C=C1C[C@@]23CC[C@@H]4C(C)(C)C(=O)CC[C@@]4(C)[C@@H]2C[C@@H]1C[C@H]3O    inactive
CC1(C)C(=O)CC[C@]2(C)[C@@H]1CC[C@@]13CC[C@@H](C[C@H]12)C(=O)C3    inactive
C=C1C[C@@]23CC[C@@H]4C(C)(C)C(=O)CC[C@@]4(C)[C@@H]2C[C@@H]1[C@@H](O)[C@H]3O    inactive
